# Test system: β-galactosidase in CMV-LacZ C2C12 myotubes
# Assay procedure: CMV-LacZ secondary screen in C2C12 myotubes (β-Gal stabilizing assay)
# Format: cell-based, mouse
# Protocol conditions: 5 uM; C2C12 CMV-LacZ myotubes; fold relative to DMSO
Can you tell me CMV-LACZ in Myotubes, signal relative to DMSO for the items I'm about to list?
One number for each entry.

Compound	Tested system	Recorded result
CCC(CC)C(=O)Nc1c(C(=O)N2CCN(c3ccccc3)CC2)oc2ccccc12	β-galactosidase in CMV-LacZ C2C12 myotubes	1.0227

Dear colleague, could you please provide CMV-LACZ in Myotubes, signal relative to DMSO for the compounds listed below?
1. CCOCCCN1C(=O)CN(C2CCCCCC2)C(=O)C1c1ccc(OC)cc1 (stereo not shown)
2. CCNC(=O)COC(=O)c1cc(-c2ccco2)nc2ccccc12
3. COc1ccc(Cl)cc1NC(=O)c1cc(-c2cc(C)ccc2O)n[nH]1

1. 0.9124
2. 0.8986
3. 1.0257

====

# Tested on: β-galactosidase in CMV-LacZ C2C12 myotubes
# Assay procedure: CMV-LacZ secondary screen in C2C12 myotubes (β-Gal stabilizing assay)
# Type: cell-based, mouse
# Protocol conditions: 40 uM; C2C12 CMV-LacZ myotubes; fold relative to DMSO
// assign Fulfilled if CMV-LACZ in Myotubes, signal relative to DMSO falls strictly below 1, else Not fulfilled (ties count as Not fulfilled)

Compound	Classification
CCOc1ccccc1NC(=O)COC(=O)CNS(=O)(=O)c1ccc(C)cc1 [MLS000393567-01]	Fulfilled
O=C(Cn1nc(-c2ccc(Cl)cc2)ccc1=O)N1CCC2(CC1)OCCO2 [MLS000689492-01]	Fulfilled

Would you kindly verify if CMV-LACZ in Myotubes, signal relative to DMSO of Cc1nnc(-c2ccc(N3CCOCC3)c([N+](=O)[O-])c2)o1 [MLS001359861-01] is strictly less than 1?
Fulfilled

Would you kindly verify if CMV-LACZ in Myotubes, signal relative to DMSO of O=c1oc2c(-c3cccc(F)c3)cc(O)cc2s1 [MLS000680049-01] is strictly less than 1?
Fulfilled

Would you kindly verify if CMV-LACZ in Myotubes, signal relative to DMSO of Cn1cc(CN2CCC(C(=O)Nc3cccc(-c4cscn4)c3)CC2)cn1 [MLS001105912-01] is strictly less than 1?
Not fulfilled

====

Can you tell me Burkin Assay in Myotubes, α7 integrin LacZ reporter signal relative to DMSO for the items I'm about to list?
# Test system: α7 integrin (LacZ reporter in α7+/LacZ myotubes)
# Assay procedure: Myotube α7 integrin FDG assay (Burkin assay in myotubes, 96-well)
# Assay type: cell-based, mouse
# Protocol conditions: myotubes, 10 uM
Numbers only.

Compound	Recorded result
Cc1ccc(NS(=O)(=O)c2ccc(-c3ccc(=O)[nH]n3)o2)c(C)c1	0.8553

Dear colleague, could you please provide Burkin Assay in Myotubes, α7 integrin LacZ reporter signal relative to DMSO for the compounds listed below?
1. COc1ccccc1NS(=O)(=O)c1cc(NC(=O)c2ccc(Cl)nc2)ccc1N1CCCC1
2. O=C(O)C(Cc1ccc(O)cc1)N1C(=O)c2ccccc2C1=O (stereo not drawn)
3. CCCc1nnc(SCC(=O)NC2CCCC2)n1CCOC
4. CCc1nnc(NC(=O)c2ccc(S(=O)(=O)NCC(C)C)cc2)s1

1: 1.24; 2: 0.9854; 3: 1.081; 4: 0.9583

Dear colleague, could you please provide Burkin Assay in Myotubes, α7 integrin LacZ reporter signal relative to DMSO for the compounds listed below?
1. CCOc1cc(C)c(S(=O)(=O)N2CCCCC2)cc1C
2. N#C/C(=C/c1ccc(N2CCOCC2)o1)C(=O)Nc1ccccc1
3. CCc1nc2ccccc2c(C(=O)NCc2ccccc2)c1C
4. O=C(Nc1ccccc1Cl)C1CCCN1C(=O)OCc1ccccc1 (stereo not drawn)

0.9384
0.9829
1.101
0.9429
